# Tested on: Digitaria sanguinalis
# Protocol description: Herbicidal activity against Digitaria sanguinalis (hairy crabgrass) assessed as inhibition in green house at 375 g/ha pre-emergence treatment measured after 15 days
# Type: functional
# Applied conditions: 360 h
Kindly supply the reported inhibition at 375 g/ha values for the records listed here.
Numbers only, in %.

Example cases with answers are listed next.
CCOc1ccc(/C(O)=C2\C(=O)CN(C(C)C)C2=O)cc1
94
CCOc1ccc(/C(O)=C2\C(=O)CN(C3CC3)C2=O)cc1
33
COc1ccc(/C(O)=C2\C(=O)CN(C3CC3)C2=O)cc1
69
CS(=O)(=O)c1ccc(C(=O)C2C(=O)CCCC2=O)c(Cl)c1
100
COc1ccc(/C(O)=C2\C(=O)CN(C(C)C)C2=O)cc1
38

Give me inhibition at 375 g/ha for each of these compounds, listed below.
1. COc1ccc(/C(O)=C2\C(=O)CN(C(C)(C)C)C2=O)cc1
2. COc1ccc(/C(O)=C2\C(=O)CN(C(C)C)C2=O)c(OC)c1
3. Cc1ccccc1/C(O)=C1\C(=O)CN(C(C)C)C1=O

Reply text:
8
77
30
